Give ELISA Signal-blank (100 nM Fab) for every item shown.
TESTED_SYSTEM: T1, Recombinant Human DLL4 (human, UniProt Q9NR61 27-524)
T1 construct: also called delta-like protein 4; rHuman DLL4
PROCEDURE_DETAILS: ELISA, DLL4 coated on plate, Fab at 100 nM, absorbance at 450 nm minus blank
Numbers only.

Field: example entries. Status: answers known.
>  <BINDER>
Fab VH5-51_IGHD5-18*01>3_IGHJ4*01 G100K/G104T G24T/S28R/G35V (H:KT TRV) & V3-4_IGLJ1*01 Y34A (Fab, V domains shown, Fab; expressed in E. coli with CH1 (Plasmid A, His6 and Flag tags) and lambda CL (Plasmid E); also called H:KT TRV & Y34A) VH: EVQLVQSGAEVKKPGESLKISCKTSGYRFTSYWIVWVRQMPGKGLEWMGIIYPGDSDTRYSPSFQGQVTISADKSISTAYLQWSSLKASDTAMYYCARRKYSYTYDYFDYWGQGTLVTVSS VL: QTVVTQEPSFSVSPGGTVTLTCGLSSGSVSTSYAPSWYQQTPGQAPRTLIYSTNTRSSGVPDRFSGSILGNKAALTITGAQADDESDYYCVLYMGSGISYVFGTGTKVTVL

>  <OBSERVED_PROPERTY>
ELISA Signal-blank (100 nM Fab)

>  <VAL>
0.085

$$$$
>  <BINDER>
Fab VH5-51_IGHD5-18*01>3_IGHJ4*01 G100K/G104T G24T/S28R/G35V (H:KT TRV) & V3-4_IGLJ1*01 V91A (Fab, V domains shown, Fab; expressed in E. coli with CH1 (Plasmid A, His6 and Flag tags) and lambda CL (Plasmid E); also called H:KT TRV & V91A) VH: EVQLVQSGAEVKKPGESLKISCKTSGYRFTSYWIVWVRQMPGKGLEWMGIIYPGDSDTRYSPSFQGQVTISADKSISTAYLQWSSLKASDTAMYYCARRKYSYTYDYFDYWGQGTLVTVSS VL: QTVVTQEPSFSVSPGGTVTLTCGLSSGSVSTSYYPSWYQQTPGQAPRTLIYSTNTRSSGVPDRFSGSILGNKAALTITGAQADDESDYYCALYMGSGISYVFGTGTKVTVL

>  <OBSERVED_PROPERTY>
ELISA Signal-blank (100 nM Fab)

>  <VAL>
0.606

$$$$

State, in one line, measured ELISA Signal-blank (100 nM Fab) of Fab VH5-51_IGHD5-18*01>3_IGHJ4*01 G100K/G104T G24T/S28R/G35V (H:KT TRV) & V3-4_IGLJ1*01 L92A (Fab, V domains shown, Fab; expressed in E. coli with CH1 (Plasmid A, His6 and Flag tags) and lambda CL (Plasmid E); also called H:KT TRV & L92A) VH: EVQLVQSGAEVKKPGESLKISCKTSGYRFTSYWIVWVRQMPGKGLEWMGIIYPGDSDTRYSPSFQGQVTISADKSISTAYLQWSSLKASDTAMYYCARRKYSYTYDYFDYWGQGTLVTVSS VL: QTVVTQEPSFSVSPGGTVTLTCGLSSGSVSTSYYPSWYQQTPGQAPRTLIYSTNTRSSGVPDRFSGSILGNKAALTITGAQADDESDYYCVAYMGSGISYVFGTGTKVTVL 0.186
